Test system: NCI-H1975
Assay: Cytotoxicity against human NCI-H1975 cells assessed as inhibition of cell viability incubated for 48 hrs by MTT assay
Type: functional, cell-based
Conditions: NCI-H1975, 48 h
Reported Metric: pIC50
Schema: pIC50 number; meaning minus log10 of the concentration expressed in molar units.

With NCI-H1975 as the test system, CC(C)[C@]12O[C@H]1[C@@H]1O[C@]13[C@]1(O[C@H]1C[C@H]1C4=C(CC[C@@]13C)C(=O)OC4)[C@]2(O)COC(=O)CCCCCCC[P+](c1ccccc1)(c1ccccc1)c1ccccc1 showed pIC50 of 4.60

With NCI-H1975 as the test system, CC(C)[C@]12O[C@H]1[C@@H]1O[C@]13[C@]1(O[C@H]1C[C@H]1C4=C(CC[C@@]13C)C(=O)OC4)[C@@H]2OC(=O)CCCCCCCCCC[n+]1ccc(/C=C/c2c[nH]c3ccccc23)cc1 showed pIC50 of 6.47

With NCI-H1975 as the test system, COc1cccc2c1C(=O)c1c(O)c3c(c(O)c1C2=O)C[C@@](O)(C(=O)CO)C[C@@H]3O[C@H]1C[C@H](N)[C@H](O)[C@H](C)O1 showed pIC50 of 5.58

With NCI-H1975 as the test system, CC(C)[C@]12O[C@H]1[C@@H]1O[C@]13[C@]1(O[C@H]1C[C@H]1C4=C(CC[C@@]13C)C(=O)OC4)[C@@H]2OC(=O)CCCCCCCC[n+]1ccc(/C=C/c2c[nH]c3ccccc23)cc1.[Br-] showed pIC50 of 6.68

With NCI-H1975 as the test system, CC(C)[C@]12O[C@H]1[C@@H]1O[C@]13[C@]1(O[C@H]1C[C@H]1C4=C(CC[C@@]13C)C(=O)OC4)[C@@H]2OC(=O)CCCC[n+]1ccc(/C=C/c2c[nH]c3ccccc23)cc1 showed pIC50 of 5.24

With NCI-H1975 as the test system, CC(C)[C@]12O[C@H]1[C@@H]1O[C@]13[C@]1(O[C@H]1C[C@H]1C4=C(CC[C@@]13C)C(=O)OC4)[C@@H]2OC(=O)CCCCC[n+]1ccc(/C=C/c2c[nH]c3ccccc23)cc1 showed pIC50 of 5.54

With NCI-H1975 as the test system, CC(C)[C@]12O[C@H]1[C@@H]1O[C@]13[C@]1(O[C@H]1C[C@H]1C4=C(CC[C@@]13C)C(=O)OC4)[C@]2(O)COC(=O)CCCCCCCC[P+](c1ccccc1)(c1ccccc1)c1ccccc1 showed pIC50 of 4.61

With NCI-H1975 as the test system, CC(C)[C@]12O[C@H]1[C@@H]1O[C@]13[C@]1(O[C@H]1C[C@H]1C4=C(CC[C@@]13C)C(=O)OC4)[C@@H]2OC(=O)CCCCCCC[n+]1ccc(/C=C/c2c[nH]c3ccccc23)cc1.[Br-] showed pIC50 of 6.40

With NCI-H1975 as the test system, CC(C)[C@]12O[C@H]1[C@@H]1O[C@]13[C@]1(O[C@H]1C[C@H]1C4=C(CC[C@@]13C)C(=O)OC4)[C@]2(O)COC(=O)CCCCCCCCC[P+](c1ccccc1)(c1ccccc1)c1ccccc1 showed pIC50 of 4.73

With NCI-H1975 as the test system, CC(C)[C@]12O[C@H]1[C@@H]1O[C@]13[C@]1(O[C@H]1C[C@H]1C4=C(CC[C@@]13C)C(=O)OC4)[C@@H]2OC(=O)CCCCCC[n+]1ccc(/C=C/c2c[nH]c3ccccc23)cc1 showed pIC50 of 6.57

With NCI-H1975 as the test system, CC(C)[C@]12O[C@H]1[C@@H]1O[C@]13[C@]1(O[C@H]1C[C@H]1C4=C(CC[C@@]13C)C(=O)OC4)[C@@H]2OC(=O)CCCCCCCCC[n+]1ccc(/C=C/c2c[nH]c3ccccc23)cc1 showed pIC50 of 6.36

With NCI-H1975 as the test system, CC(C)[C@]12O[C@H]1[C@@H]1O[C@]13[C@]1(O[C@H]1C[C@H]1C4=C(CC[C@@]13C)C(=O)OC4)[C@@H]2OC(=O)CCCCC[P+](c1ccccc1)(c1ccccc1)c1ccccc1.[Br-] showed pIC50 of 6.85
